These data points were gathered from paper PMC8565515.

(%) Cytotoxicity: recorded values
System: J2 HIE monolayers
Assay: Cytotoxicity by LDH assay in J2 HIE monolayers
Conditions: compound 10 μM, n = 1, LDH assay, J2 HIE monolayers infected with GII.4 HuNoV, 24 hpi, normalized to DMSO control
measurement.kind: (%) Cytotoxicity

>  <compound>
COC[C@H]1C[C@@H](c2ncc(-c3ccc4c(c3)COc3cc5c(ccc6nc([C@@H]7CC[C@H](C)N7C(=O)[C@@H](NC(=O)OC)C(C)C)[nH]c65)cc3-4)[nH]2)N(C(=O)[C@H](NC(=O)OC)c2ccccc2)C1

>  <measurement.kind>
(%) Cytotoxicity

>  <data.value>
1.45

$$$$
>  <compound>
O=C(Nc1ccc(O)cc1)c1ccccc1O

>  <measurement.kind>
(%) Cytotoxicity

>  <data.value>
3.16

$$$$
>  <compound>
Nc1nc2c(ncn2[C@@H]2O[C@H](CO)[C@@H](O)[C@H]2O)c(=O)[nH]1

>  <measurement.kind>
(%) Cytotoxicity

>  <data.value>
0.15

$$$$
>  <compound>
CC(C)(C)C#Cc1cc(N(C(=O)[C@H]2CC[C@H](C)CC2)[C@H]2CC[C@H](O)CC2)c(C(=O)O)s1

>  <measurement.kind>
(%) Cytotoxicity

>  <data.value>
-1.75

$$$$
>  <compound>
O=C1C[C@@H](c2ccc(O)cc2)Oc2cc(O)cc(O)c21

>  <measurement.kind>
(%) Cytotoxicity

>  <data.value>
1.14

$$$$
>  <compound>
CN(C)[C@@H]1C(O)=C(C(N)=O)C(=O)[C@@]2(O)C(O)=C3C(=O)c4c(O)cccc4[C@@](C)(O)[C@H]3C[C@@H]12

>  <measurement.kind>
(%) Cytotoxicity

>  <data.value>
0.09

$$$$
>  <compound>
COc1ccc(C2CNC(=O)C2)cc1OC1CCCC1 (stereo not shown)

>  <measurement.kind>
(%) Cytotoxicity

>  <data.value>
-0.46

$$$$

----------
Test system: J2 HIE monolayers

>  <compound>
COC(=O)C(C)(N)C(C)(C)C (centres unmarked)

>  <(%) Cytotoxicity>
2.41%

$$$$
>  <compound>
CCc1nn(CC(=O)NCCCN(CC)CC)c(=O)c2cc3sc(C)cc3n12

>  <(%) Cytotoxicity>
0.72%

$$$$
>  <compound>
CCOC(=O)CCc1c(C)nc2c(c(C)nn2-c2ccc(C)cc2)c1C

>  <(%) Cytotoxicity>
-1.01%

$$$$
>  <compound>
CCOC(=O)c1cccc(NC(=O)CCn2nc(C)c(S(=O)(=O)N3CCCCC3)c2C)c1

>  <(%) Cytotoxicity>
1.12%

$$$$
>  <compound>
N[C@@H](CCC(=O)N[C@@H](CS[C@@H]1CCn2ccc(CO)c21)C(=O)NCC(=O)O)C(=O)O

>  <(%) Cytotoxicity>
-0.22%

$$$$

----------
(%) Cytotoxicity: recorded values
Test system: J2 HIE monolayers
Conditions: human, 24 h, 10 μM
Where a name gives a salt, the structure may show the parent alone.
measurement.kind: (%) Cytotoxicity

>  <molecule>
O=C(O)c1cc(=O)[nH]c(=O)[nH]1

>  <data.value>
0.45

$$$$
>  <molecule>
O=c1[nH]c(=O)n([C@H]2C[C@H](O)[C@@H](CO)O2)cc1I

>  <data.value>
-0.36

$$$$
>  <molecule>
Nc1nc(O)c2ncn(COC(CO)CO)c2n1

>  <data.value>
3.59

$$$$
>  <molecule>
CC1(C)O[C@H]2CC(=O)OC[C@]23[C@H]2CC[C@@]4(C)[C@H](c5ccoc5)OC(=O)[C@H]5O[C@]54[C@]2(C)C(=O)C[C@@H]13

>  <data.value>
0.73

$$$$
>  <molecule>
CCn1cc(C(=O)O)c(=O)c2cc(F)c(N3CCNCC3)nc21

>  <data.value>
0.62

$$$$
>  <molecule>
CC(=O)OCC(=O)[C@@]1(O)CC[C@H]2[C@@H]3CCC4=CC(=O)C=C[C@]4(C)[C@@]3(Cl)[C@@H](Cl)C[C@@]21C [Dichlorisone Acetate]

>  <data.value>
-1.58

$$$$
>  <molecule>
CCC[C@H](NC(=O)[C@@H]1[C@H]2CCC[C@H]2CN1C(=O)[C@@H](NC(=O)[C@@H](NC(=O)c1cnccn1)C1CCCCC1)C(C)(C)C)C(=O)C(=O)NC1CC1

>  <data.value>
0.86

$$$$
>  <molecule>
Nc1ccn([C@H]2CC[C@@H](CO)O2)c(=O)n1

>  <data.value>
2.88

$$$$
>  <molecule>
Clc1ccc(COC(Cn2ccnc2)c2ccc(Cl)cc2Cl)c(Cl)c1 (stereo not shown)

>  <data.value>
25.21

$$$$
>  <molecule>
Cc1cc(F)c(C(=O)Nc2cccc(-c3nncn3C(C)C)n2)cc1-n1cnc(C2CC2)c1

>  <data.value>
-2.58

$$$$
>  <molecule>
CC(=O)Oc1ccccc1C(=O)Nc1ncc([N+](=O)[O-])s1 [Nitazoxanide]

>  <data.value>
4.63

$$$$
>  <molecule>
Cc1cn([C@H]2C=C[C@@H](CO)O2)c(=O)[nH]c1=O

>  <data.value>
2.15

$$$$
>  <molecule>
CC(C)CN(C[C@@H](O)[C@H](Cc1ccccc1)NC(=O)O[C@H]1CCOC1)S(=O)(=O)c1ccc(N)cc1

>  <data.value>
-0.21

$$$$
>  <molecule>
Cc1cccc(C)c1OCC(=O)N[C@@H](Cc1ccccc1)[C@@H](O)C[C@H](Cc1ccccc1)NC(=O)[C@H](C(C)C)N1CCCNC1=O

>  <data.value>
9.07

$$$$
>  <molecule>
Cc1nc(Nc2ccc(F)cc2)nc(N2CCc3ccccc3C2C)c1C (stereo not shown) [Revaprazan hydrochloride]

>  <data.value>
0.20

$$$$
>  <molecule>
C[C@@H]1CC[C@H]2[C@@H](C)C(=O)O[C@@H]3O[C@@]4(C)CC[C@@H]1[C@]32OO4

>  <data.value>
1.63

$$$$

----------
System: J2 HIE monolayers
Assay: Cytotoxicity by LDH assay in J2 HIE monolayers
Details: compound 10 μM, n = 1, LDH assay, J2 HIE monolayers infected with GII.4 HuNoV, 24 hpi, normalized to DMSO control

>  <molecule>
COc1cc2ncnc(Nc3cccc(Cl)c3)c2cc1OC

>  <(%) Cytotoxicity>
84.88

$$$$
>  <molecule>
Cl.N=C(N=C(N)N)N1CCOCC1 [Moroxydine hydrochloride]

>  <(%) Cytotoxicity>
-1.11

$$$$
>  <molecule>
Cc1nnc(C(=O)NC(C)(C)c2nc(C(=O)NCc3ccc(F)cc3)c(O)c(=O)n2C)o1

>  <(%) Cytotoxicity>
1.45

$$$$
>  <molecule>
O=S(=O)(CCC(F)=C(F)F)c1ncc(Cl)s1

>  <(%) Cytotoxicity>
-2.22

$$$$
>  <molecule>
Cc1cc(C)c(Nc2ccnc(Nc3ccc(C#N)cc3)n2)c(C)c1

>  <(%) Cytotoxicity>
0.74

$$$$

----------
System: J2 HIE monolayers
Assay: Cytotoxicity by LDH assay in J2 HIE monolayers
Settings: compound 10 μM, n = 1, LDH assay, J2 HIE monolayers infected with GII.4 HuNoV, 24 hpi, normalized to DMSO control

>  <compound>
CCOC(=O)c1c(CSc2ccccc2)n(C)c2cc(Br)c(O)c(CN(C)C)c12.Cl [Arbidol hydrochloride]

>  <unit.text>
%

>  <(%) Cytotoxicity>
15.58

$$$$
>  <compound>
CC(C)c1nc(CN(C)C(=O)N[C@@H](CCN2CCOCC2)C(=O)N[C@H](CC[C@H](Cc2ccccc2)NC(=O)OCc2cncs2)Cc2ccccc2)cs1 [Cobicistat]

>  <unit.text>
%

>  <(%) Cytotoxicity>
-2.34

$$$$
>  <compound>
CCOC(=O)c1c(C)n(C)c2ccc(O)cc12 [Mecarbinate]

>  <unit.text>
%

>  <(%) Cytotoxicity>
0.93

$$$$
>  <compound>
CN(C)C[C@H](O)Cn1c2ccc(Br)cc2c2cc(Br)ccc21 (racemic) [Wiskostatin]

>  <unit.text>
%

>  <(%) Cytotoxicity>
2.02

$$$$
>  <compound>
CC1(C)[C@@H](O[C@H]2O[C@H](C(=O)O)[C@@H](O)[C@H](O)[C@H]2O[C@@H]2O[C@H](C(=O)O)[C@@H](O)[C@H](O)[C@H]2O)CC[C@]2(C)[C@H]3C(=O)C=C4[C@@H]5C[C@@](C)(C(=O)O)CC[C@]5(C)CC[C@@]4(C)[C@]3(C)CC[C@@H]12.N.N [Diammonium Glycyrrhizinate]

>  <unit.text>
%

>  <(%) Cytotoxicity>
0.23

$$$$
>  <compound>
CC[n+]1c(-c2ccccc2)c2cc(N)ccc2c2ccc(N)cc21 [Ethidium bromide]

>  <unit.text>
%

>  <(%) Cytotoxicity>
-1.16

$$$$
>  <compound>
CCCCCCCCCC(=O)O[C@H]1CC[C@H]2[C@@H]3CCC4=CC(=O)CC[C@@H]4[C@H]3CC[C@]12C [Nandrolone decanoate]

>  <unit.text>
%

>  <(%) Cytotoxicity>
0.98

$$$$
>  <compound>
CCOC(=O)CCC(=O)O[C@H]1[C@H](O[C@@H]2[C@@H](C)[C@H](O[C@H]3C[C@@](C)(OC)[C@@H](O)[C@H](C)O3)[C@@H](C)C(=O)O[C@H](CC)[C@@](C)(O)[C@H](O)[C@@H](C)C(=O)[C@H](C)C[C@@]2(C)O)O[C@H](C)C[C@@H]1N(C)C [Erythromycin ethylsuccinate]

>  <unit.text>
%

>  <(%) Cytotoxicity>
0.23

$$$$
>  <compound>
CN[C@@H]1[C@H](O)[C@H](NC)[C@H]2O[C@@]3(O)C(=O)C[C@@H](C)O[C@H]3O[C@@H]2[C@H]1O.Cl.Cl [Spectinomycin dihydrochloride]

>  <unit.text>
%

>  <(%) Cytotoxicity>
-1.44

$$$$
>  <compound>
O=C1CCC[C@@H]2[C@H]3CCC[N+]4([O-])CCC[C@@H](CN12)[C@@H]34 (stereo partly shown) [Oxymatrine]

>  <unit.text>
%

>  <(%) Cytotoxicity>
2.33

$$$$
>  <compound>
COC(=O)N[C@H](C(=O)NNC[C@H](O)[C@H](Cc1ccccc1)NC(=O)[C@@H](NC(=O)OC)C(C)(C)C)C(C)(C)C [Des(benzylpyridyl) Atazanavi]

>  <unit.text>
%

>  <(%) Cytotoxicity>
2.40

$$$$
>  <compound>
CC(C)OC(=O)C1=CN(C(=O)c2ccc(F)c(F)c2)CC(C)(C)c2c1[nH]c1ccccc21 [Turofexorate Isopropyl]

>  <unit.text>
%

>  <(%) Cytotoxicity>
0.86

$$$$
>  <compound>
CC1(C)[C@@H](O[C@H]2O[C@H](C(=O)O)[C@@H](O)[C@H](O)[C@H]2O[C@@H]2O[C@H](C(=O)O)[C@@H](O)[C@H](O)[C@H]2O)CC[C@]2(C)[C@H]3C(=O)C=C4[C@@H]5C[C@@](C)(C(=O)O)CC[C@]5(C)CC[C@@]4(C)[C@]3(C)CC[C@@H]12 [Glycyrrhizin]

>  <unit.text>
%

>  <(%) Cytotoxicity>
4.28

$$$$
>  <compound>
Cc1cc(C#N)cc(C)c1Oc1nc(Nc2ccc(C#N)cc2)nc(N)c1Br [Etravirine]

>  <unit.text>
%

>  <(%) Cytotoxicity>
24.52

$$$$
>  <compound>
C=C1CC[C@@H]2[C@](C)(CO)[C@H](O)CC[C@@]2(C)[C@@H]1C/C=C1/C(=O)OC[C@H]1O [Andrographolide]

>  <unit.text>
%

>  <(%) Cytotoxicity>
-1.18

$$$$
>  <compound>
COc1cc2c(cc1Cc1cccc(Cl)c1F)c(=O)c(C(=O)O)cn2[C@H](CO)C(C)C [Elvitegravir]

>  <unit.text>
%

>  <(%) Cytotoxicity>
0.85

$$$$
>  <compound>
COc1ccc([C@H]2OC[C@H]3[C@@H]2CO[C@H]3c2ccc(O[C@@H]3O[C@H](CO)[C@@H](O)[C@H](O)[C@H]3O)c(OC)c2)cc1OC [Forsythin]

>  <unit.text>
%

>  <(%) Cytotoxicity>
1.24

$$$$
>  <compound>
CC1(C)CC[C@]2(C(=O)O)CC[C@]3(C)C(=CC[C@@H]4[C@@]5(C)CCC(=O)C(C)(C)[C@@H]5CC[C@]43C)[C@@H]2C1 [Oleanonic Acid]

>  <unit.text>
%

>  <(%) Cytotoxicity>
-3.05

$$$$
>  <compound>
COc1ccnc(C[S+]([O-])c2nc3ccc(-n4cccc4)cc3[n-]2)c1C.[Na+] (stereo not shown) [Ilaprazole sodium]

>  <unit.text>
%

>  <(%) Cytotoxicity>
1.57

$$$$
>  <compound>
Cc1cnc(C(=O)N[C@H]2CCCCC/C=C\[C@@H]3C[C@@]3(C(=O)NS(=O)(=O)C3CC3)NC(=O)[C@@H]3C[C@@H](Oc4nc5ccccc5c5ccccc45)CN3C2=O)cn1 [Paritaprevir]

>  <unit.text>
%

>  <(%) Cytotoxicity>
-0.33

$$$$
>  <compound>
COc1c(-c2ccc3cc(NS(C)(=O)=O)ccc3c2)cc(-n2ccc(=O)[nH]c2=O)cc1C(C)(C)C [Dasabuvir]

>  <unit.text>
%

>  <(%) Cytotoxicity>
-4.83

$$$$
>  <compound>
C[C@H]1CO[C@@H]2Cn3cc(C(=O)NCc4ccc(F)cc4F)c(=O)c(O)c3C(=O)N12 [Cabotegravir]

>  <unit.text>
%

>  <(%) Cytotoxicity>
5.83

$$$$
>  <compound>
O=c1c2ccccc2[se]n1-c1ccccc1 [Ebselen]

>  <unit.text>
%

>  <(%) Cytotoxicity>
2.77

$$$$
>  <compound>
O=C(Nc1ncc([N+](=O)[O-])s1)c1ccccc1O [Tizoxanide]

>  <unit.text>
%

>  <(%) Cytotoxicity>
2.28

$$$$
>  <compound>
C[C@H]1CC[C@@]2(O)C(C)(C)[C@@H]3CC[C@@]2(C)[C@H]1C3 [Patchouli alcohol]

>  <unit.text>
%

>  <(%) Cytotoxicity>
1.24

$$$$
>  <compound>
COc1cc(O)c(CC=C(C)C)c(O)c1C(=O)/C=C/c1ccc(O)cc1 [Xanthohumol]

>  <unit.text>
%

>  <(%) Cytotoxicity>
2.40

$$$$
>  <compound>
Cc1cc(/C=C/C#N)cc(C)c1Nc1ccnc(Nc2ccc(C#N)cc2)n1 [Rilpivirine]

>  <unit.text>
%

>  <(%) Cytotoxicity>
0.20

$$$$
>  <compound>
O=c1[nH]c(=O)n([C@H]2C[C@H](O)[C@@H](CO)O2)cc1/C=C/Br [Brivudine]

>  <unit.text>
%

>  <(%) Cytotoxicity>
4.68

$$$$
